I'd be grateful if you could share measured CC50 at 72 h for these entries.
# protocol: Cytotoxicity against mouse NIH/3T3 cells after 72 hrs by WST-1 assay
# Type: cell-based, NIH3T3
# details: read-out: TC50
One number for each entry, in µM.

These recorded examples may help you get a feel for the data.
smiles_representation	measurement_unit	CC50 at 72 h
CCCCCCCCCCc1c(C)c(CCCCCCCCCC)c2[n+](c1C)CCC2	µM	5.08
CCCCCCCC/C=C/c1c(C)c(/C=C/CCCCCCCC)c2[n+](c1C)CCC2	µM	4.35
CCCCCCCCCCc1c(C)c(CCCCCCCCCC)c2[n+](c1C)CCCCC2	µM	11.7

// query Give the measured CC50 at 72 h of CCCCCCCC/C=C\c1c(C)c(/C=C\CCCCCCCC)c2[n+](c1C)CCCCC2 .
// result 10.1

---

# protocol: Toxicity in sheep RBC assessed as induction of hemolysis after 1 hrs by spectrophotometry relative to control
# Format: cell-based, Ovis aries, Erythrocyte
# details: sheep red blood cells
measured_metric: HC50 at 1 h (µM)
Give bare numbers, in µM.

These recorded examples may help you get a feel for the data.
smiles_representation	HC50 at 1 h, µM
CCCCCCCC/C=C/c1c(C)c(/C=C/CCCCCCCC)c2[n+](c1C)CCCC2	58.1
CCCCCCCCCCc1c(C)c(CCCCCCCCCC)c2[n+](c1C)CCCC2	96.2
CCCCCCCC/C=C\c1c(C)c(/C=C\CCCCCCCC)c2[n+](c1C)CCCCC2	63

Turning now to a further compound:
// query Give the measured HC50 at 1 h of CCCCCCCCCCc1c(C)c(CCCCCCCCCC)c2[n+](c1C)CCC2 .
// result 77.1

---

I'd be grateful if you could share measured selectivity ratio for these entries.
# protocol: Therapeutic index, ratio of TC50 for mouse NIH/3T3 cells by WST-1 assay to ED50 for human PC3 cells
# Assay type: cell-based, PC-3
# details: NIH/3T3 cells versus PC3 cells, read-out: TI
One number for each entry.

These recorded examples may help you get a feel for the data.
molecule	selectivity ratio
CCCCCCCC/C=C\c1c(C)c(/C=C\CCCCCCCC)c2[n+](c1C)CCC2 [ANIBAMINE]	20.8
CCCCCCCC/C=C/c1c(C)c(/C=C/CCCCCCCC)c2[n+](c1C)CCCC2	92.3

// query Give the measured selectivity ratio of CCCCCCCC/C=C\c1c(C)c(/C=C\CCCCCCCC)c2[n+](c1C)CCCC2 .
// result 104

---

# protocol: Therapeutic index, ratio of TC50 for mouse NIH/3T3 cells by WST-1 assay to ED50 for human DU145 cells
# Format: cell-based, DU-145
# details: NIH/3T3 cells versus DU145 cells, read-out: TI
measured_metric: selectivity ratio
Give bare numbers.

smiles_representation	selectivity ratio
CCCCCCCC/C=C\c1c(C)c(/C=C\CCCCCCCC)c2[n+](c1C)CCC2	23
CCCCCCCC/C=C\c1c(C)c(/C=C\CCCCCCCC)c2[n+](c1C)CCCC2	80.8

Turning now to a further compound:
// query Give the measured selectivity ratio of CCCCCCCC/C=C/c1c(C)c(/C=C/CCCCCCCC)c2[n+](c1C)CCCC2 .
// result 38.1

---

# protocol: Cytotoxicity against mouse NIH/3T3 cells after 72 hrs by WST-1 assay
# Assay type: cell-based, NIH3T3
# details: read-out: TC50
measured_metric: CC50 at 72 h (µM)
Give bare numbers, in µM.

Dear reader, for each entry below, please note its CC50 at 72 h.
1. CCCCCCCC/C=C\c1c(C)c(/C=C\CCCCCCCC)c2[n+](c1C)CCC2
2. CCCCCCCC/C=C/c1c(C)c(/C=C/CCCCCCCC)c2[n+](c1C)CCCC2
3. CCCCCCCC/C=C/c1c(C)c(/C=C/CCCCCCCC)c2[n+](c1C)CCCCC2

// result
[23.5, 17.5, 4.76]

Dear reader, for each entry below, please note its CC50 at 72 h.
1. CCCCCCCC/C=C\c1c(C)c(/C=C\CCCCCCCC)c2[n+](c1C)CCCC2
2. CCCCCCCCCCc1c(C)c(CCCCCCCCCC)c2[n+](c1C)CCCC2

// result
[29.1, 3.76]

Provenance of the data: ChEMBL document CHEMBL1817659
